Cited source for all entries: patent US20250290928A1

study.system: MMP14 in the MDA-MB-231-derived extracellular vesicles (Homo sapiens)
Construct: in terms of intact MMP14 with a molecular weight of 70 kDa
assay.summary: Digital detection of MDA-MB-231-derived extracellular vesicles through MMP14 activity in wells (microcompartments)
Assay type: biochemical
experimental.setup: Example 38, EV 2.5 μg/mL, reporter 5 μM, 30° C., 24 hr
No end group written: not given here. *: point of attachment. 5FAM = O=C1OC2(c3ccc(O)cc3Oc3cc(O)ccc32)c2ccc(C(=O)*)cc21; TQ2 = quencher
Some substances, each annotated with its measured Positive ratio.
attribute.measured: Positive ratio

* TQ2-YPPRPLLARK(5-FAM) (TQ2-YPPRPLLARK(5FAM)) [Custom #15] | 0.2489
* TQ2-LAPLGLQRRK(5-FAM) (TQ2-LAPLGLQRRK(5FAM)) [Custom #11] | 0.2529
* TQ2-DLPAGLQARK(5-FAM) (TQ2-DLPAGLQARK(5FAM)) [Custom #14] | 0.3248
* TQ2-FMPLGLRGIK(5-FAM) (TQ2-FMPLGLRGIK(5FAM)) [Custom #12] | 0.2651
* TQ2-WPHGSLQAAK(5-FAM) (TQ2-WPHGSLQAAK(5FAM)) [Custom #16] | 0.09341
* TQ2-WYPAGLRMVK(5-FAM) (TQ2-WYPAGLRMVK(5FAM)) [Custom #13] | 0.2309

---

study.system: MMP14 in the MDA-MB-231-derived extracellular vesicles (Homo sapiens, UniProt P50281)
Construct: in terms of intact MMP14 with a molecular weight of 70 kDa
assay.summary: Digital detection of MDA-MB-231-derived extracellular vesicles through MMP14 activity in wells (microcompartments)
Format: biochemical
experimental.setup: Example 38, 24 hr
No end group written: not given here. *: point of attachment. 5FAM = O=C1OC2(c3ccc(O)cc3Oc3cc(O)ccc32)c2ccc(C(=O)*)cc21; TQ2 = quencher
attribute.measured: Expected value λ (×1)

- TQ2-YPPRPLLARK(5-FAM) (TQ2-YPPRPLLARK(5FAM)) [Custom #15]: 1.145
- TQ2-DLPAGLQARK(5-FAM) (TQ2-DLPAGLQARK(5FAM)) [Custom #14]: 1.5709
- TQ2-LAPLGLQRRK(5-FAM) (TQ2-LAPLGLQRRK(5FAM)) [Custom #11]: 1.166
- TQ2-WPHGSLQAAK(5-FAM) (TQ2-WPHGSLQAAK(5FAM)) [Custom #16]: 0.3923
- TQ2-WYPAGLRMVK(5-FAM) (TQ2-WYPAGLRMVK(5FAM)) [Custom #13]: 1.05
- TQ2-FMPLGLRGIK(5-FAM) (TQ2-FMPLGLRGIK(5FAM)) [Custom #12]: 1.232

---

System: MMP in the MDA-MB-231-derived extracellular vesicles
assay.summary: Digital detection of MDA-MB-231-derived extracellular vesicles through MMP activity in wells (SB substrates)
Assay type: biochemical, Human
experimental.setup: Example 35, 30° C., 6 h, EV 1/36 a.u.
*: point of attachment. 5FAM = O=C1OC2(c3ccc(O)cc3Oc3cc(O)ccc32)c2ccc(C(=O)*)cc21
Consider the following substances and their measured Number of positives readings.
attribute.measured: Number of positives

- QXL520-Pro-Leu-Ala-Leu-Trp-Ala-Arg-Lys(5-FAM)-NH2 (QXL520-PLALWARK(5FAM)-NH2) [SB2]: 811
- QXL520-Pro-Tyr-Ala-Tyr-Trp-Met-Arg-Lys(5-FAM)-NH2 (QXL520-PYAYWMRK(5FAM)-NH2) [SB7]: 536
- QXL520-Arg-Pro-Leu-Ala-Leu-Trp-Arg-Lys(5-FAM)-NH2 (QXL520-RPLALWRK(5FAM)-NH2) [SB9]: 349
